Could you please report measured IC50 for the items listed next?
Molecular target: TYK2-JH2 domain (Homo sapiens, UniProt P29597)
Construct: IC50 on JH2 domain activity (nM)
Sequence (P29597 589-875 limits assumed): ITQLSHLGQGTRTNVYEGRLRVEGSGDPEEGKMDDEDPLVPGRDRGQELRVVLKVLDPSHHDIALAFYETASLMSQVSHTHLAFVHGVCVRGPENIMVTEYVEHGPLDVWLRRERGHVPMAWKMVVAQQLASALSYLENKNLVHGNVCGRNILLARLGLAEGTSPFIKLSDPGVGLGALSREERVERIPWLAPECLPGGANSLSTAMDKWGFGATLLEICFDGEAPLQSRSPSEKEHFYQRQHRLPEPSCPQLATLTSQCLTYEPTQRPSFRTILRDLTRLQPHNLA
Assay: Binding activity test for JH2 domain of TYK2 (Tb-antibody/tracer FRET)
I'd appreciate it if you included the unit after the number.

Take a look at these entries with their results.
[2H]C([2H])([2H])NC(=O)c1cnc(NC(=O)C2CC2)nc1Nc1ccc2cnn(CC)c2c1OC [Example 135] :: 1.46 nM
[2H]C([2H])([2H])NC(=O)c1cnc(NC(=O)C2CC2)cc1Nc1ccc2cnn(C(C)C#N)c2c1OC (single isomer, unassigned) [Example 249B] :: 0.738 nM
CCNC(=O)c1cnc(NC(=O)C2CC2)cc1Nc1ccc2cnn(CC)c2c1OC [Example 97] :: 4.38 nM
[2H]C([2H])([2H])NC(=O)c1cnc(NC(=O)C2CC2)cc1Nc1cn(CCOC)c2ccn(CC)c(=O)c12 [Example 193] :: 1.41 nM
[2H]C([2H])([2H])NC(=O)c1cnc(Nc2ccn(C)n2)cc1Nc1ccn2ncc(C#N)c2c1OC [Example 240] :: 0.26 nM
CCn1ncc2cnc(Nc3cc(NC(=O)C4CC4)ncc3C(=O)NC)c(OC)c21 [Example 261] :: 0.956 nM

Kindly review the next compound as well.
Can you share its IC50? I mean this compound: [2H]C([2H])([2H])NC(=O)c1cnc(NC(=O)C2CC2)cc1Nc1cn(CC)c2ncn([C@@H](C)C(F)(F)F)c(=O)c12 (single isomer, unassigned) [Example 254B] 11.6 nM

###

Experiment: Microsomal metabolic stability assay
Type: in vitro ADME
Conditions: pH 7.4; dog liver microsomes, 0.5 mg/mL protein, 1 μM compound; read-out: Dog LM Clint
metric: microsomal CLint at 1 μM (µL/min/mg)
Numbers only, in µL/min/mg.

Take a look at these entries with their results.
[2H]C([2H])([2H])NC(=O)c1cnc(NC(=O)C2CC2)cc1Nc1cn(C)c2ccn(CC(F)(F)F)c(=O)c12 [Example 110] :: 15.9
[2H]C([2H])([2H])NC(=O)c1cnc2cc1Nc1cc(cc(-c3ncn(C)n3)c1OC)COCc1cc(F)cc(n1)N2 [Example 77] :: 15.4
[2H]C([2H])([2H])NC(=O)c1cnc(NC(=O)C2CC2)cc1Nc1ccn2ncc(C#N)c2c1OC [Example 165] :: 14.3

Can you share its microsomal CLint at 1 μM? I mean this molecule: [2H]C([2H])([2H])NC(=O)c1cnc(Nc2ccn(C)n2)cc1Nc1ccc2cnn(C([2H])([2H])[2H])c2c1OC [Example 154] 16.8

###

Molecular target: TYK2-JH2 domain (Homo sapiens)
Construct: IC50 on JH2 domain activity (nM)
Assay: Binding activity test for JH2 domain of TYK2 (Tb-antibody/tracer FRET)
Could you please report measured log10 IC50 for the items listed next?
Values are log10 of IC50 in nM.

Take a look at these entries with their results.
[2H]C([2H])([2H])NC(=O)c1cnc(NC(=O)C2CC2)cc1Nc1ccc2cnn(C(C)C#N)c2c1OC (stereo not shown) [Example 249] :: -0.11
[2H]C([2H])([2H])NC(=O)c1cnc(NC(=O)C2CC2)cc1Nc1ncn2ncc(CC)c2c1OC [Example 280] :: -0.74
[2H]C([2H])([2H])NC(=O)c1cnc(NC(=O)C2CC2)cc1Nc1ccn2ncc(F)c2c1OC [Example 253] :: -0.11

Value sought for every listed compound: log10 IC50.
1. [2H]C([2H])([2H])NC(=O)c1cnc(NC(=O)C2CC2)cc1Nc1ncc2cnn(CC(F)(F)F)c2c1OC [Example 266]
2. [2H]C([2H])([2H])NC(=O)c1cnc(NC(=O)C2CC2)cc1Nc1cn(CC(F)(F)F)c2ncn(CC)c(=O)c12 [Example 214]
3. [2H]C([2H])([2H])NC(=O)c1cnc(NC(=O)C2CC2)cc1Nc1ccn2ncc(Cl)c2c1OC [Example 235]

[-0.54, -0.25, -0.58]

###

Assay: Microsomal metabolic stability assay
Type: in vitro ADME
Conditions: pH 7.4; rat liver microsomes, 0.5 mg/mL protein, 1 μM compound; read-out: Rat LM T½
metric: half-life at 1 μM (min)
One number for each entry, in min.

Take a look at these entries with their results.
[2H]C([2H])([2H])NC(=O)c1nnc2cc1Nc1cc(cc(-c3ncn(C)n3)c1OC)COCc1nc(ccc1F)N2 [Example 67] :: 29.3
CNC(=O)c1cnc(NC(=O)C2CC2)cc1Nc1csc2ccn(C)c(=O)c12 [Example 16] :: 11
[2H]C([2H])([2H])NC(=O)c1cnc(NC(=O)C2CC2)cc1Nc1cn(C)c2c(F)cn(CC(F)(F)F)c(=O)c12 [Example 123] :: 25
[2H]C([2H])([2H])NC(=O)c1nnc2cc1Nc1cc(cc(-c3ccn(C)n3)c1OC)COCc1nc(ccc1F)N2 [Example 74] :: 8.61
[2H]C([2H])([2H])NC(=O)c1cnc(NC(=O)C2CC2)cc1Nc1cn(C)c2ccn(CC)c(=O)c12 [Example 100] :: 47.7
CCn1ccc2c(c(Nc3cc(Nc4ncc(F)cc4F)ncc3C(=O)NC)cn2C)c1=O [Example 98] :: 12.1

Value sought for every listed compound: half-life at 1 μM.
1. CNC(=O)c1cnc(NC(=O)C2CC2)cc1Nc1csc2c(Cl)cn(C)c(=O)c12 [Example 171]
2. [2H]C([2H])([2H])NC(=O)c1cnc(NC(=O)C2CC2)cc1Nc1ccc2ncn(CC)c2c1OC [Example 167]
3. [2H]C([2H])([2H])NC(=O)c1cnc2nc1Nc1cc(cc(-c3ncn(C)n3)c1OC)COCc1cc(ccc1F)N2 [Example 76]
4. [2H]C([2H])([2H])NC(=O)c1cnc2cc1Nc1cc(cc(-c3ncn(C)n3)c1OC)COCc1cc(F)cc(n1)N2 [Example 77]

1. 81.9
2. 9.29
3. 70.7
4. 114

Value sought for every listed compound: half-life at 1 μM.
1. CNC(=O)c1nnc2cc1Nc1cc(cc(-c3ncn(C)n3)c1OC)COCc1cccc(n1)N2 [Example 35]
2. [2H]C([2H])([2H])NC(=O)c1cnc2nc1Nc1cc(cc(-c3ncn(C)n3)c1OC)COCc1cc(F)cc(c1)N2 [Example 79]

1. 54.3
2. 52.9

###

Test: Microsomal metabolic stability assay
Type: in vitro ADME
Conditions: pH 7.4; dog liver microsomes, 0.5 mg/mL protein, 1 μM compound; read-out: Dog LM T½
Could you please report measured half-life at 1 μM for the items listed next?

CNC(=O)c1nnc(NC(=O)C2CC2)cc1Nc1cn(C)c2ccn(C)c(=O)c12 [Example 49] :: > 2 h
[2H]C([2H])([2H])NC(=O)c1cnc(NC(=O)C2CC2)cc1Nc1csc2cnn(C(C)C(F)(F)F)c(=O)c12 (centres unmarked) [Example 185] :: > 2 h
[2H]C([2H])([2H])NC(=O)c1cnc(NC(=O)C2CC2)cc1Nc1csc2c(Cl)cn(C([2H])([2H])[2H])c(=O)c12 [Example 174] :: > 2 h
[2H]C([2H])([2H])NC(=O)c1cnc(NC(=O)C2CC2)cc1Nc1cn(C)c2c(F)cn(CC(F)F)c(=O)c12 [Example 158] :: > 3.11 h

Kindly review the next molecule as well.
Can you share its half-life at 1 μM? I mean this molecule: [2H]C([2H])([2H])NC(=O)c1cnc(NC(=O)C2CC2)cc1Nc1ccc2nnc(CC)n2c1OC [Example 58] > 2 h

###

Assay: Microsomal metabolic stability assay
Assay type: in vitro ADME
Settings: pH 7.4; rat liver microsomes, 0.5 mg/mL protein, 1 μM compound; read-out: Rat LM Clint
metric: microsomal CLint at 1 μM (µL/min/mg)
Answers are plain numbers, in µL/min/mg.

Take a look at these entries with their results.
[2H]C([2H])([2H])NC(=O)c1cnc(Nc2ccc(F)cc2)nc1Nc1cccc(-c2ncn(C)n2)c1OC :: 45.7
[2H]C([2H])([2H])NC(=O)c1cnc(NC(=O)C2CC2)cc1Nc1cn(CC)c2ncn([C@H](C)C(F)(F)F)c(=O)c12 (single isomer, unassigned) [Example 254A] :: 39.4

Kindly review the next molecule as well.
Can you share its microsomal CLint at 1 μM? I mean this molecule: [2H]C([2H])([2H])NC(=O)c1cnc(NC(=O)C2CC2)cc1Nc1nn(CC)c2ccn(CC(F)(F)F)c(=O)c12 45.9

###

Could you please report measured CLint scaled at 1 μM for the items listed next?
Test: Hepatocytes metabolic stability assay
Type: in vitro ADME
Details: cryopreserved hepatocytes, human hepatocytes, 1.0×10^6 cells/mL, read-out: Human hepatocyte Clint(liver)

Take a look at these entries with their results.
[2H]C([2H])([2H])NC(=O)c1nnc(NC(=O)C2CC2)cc1Nc1cccc(-c2ncn(C)n2)c1OC :: < 17.8 mL/min/kg
[2H]C([2H])([2H])NC(=O)c1cnc(NC(=O)C2CC2)cc1Nc1ccn2ncc(CC)c2c1OC :: 11.2 mL/min/kg
[2H]C([2H])([2H])NC(=O)c1nnc(NC(=O)C2CC2)cc1Nc1csc2ccn(CC)c(=O)c12 :: < 7.35 mL/min/kg
[2H]C([2H])([2H])NC(=O)c1cnc(NC(=O)C2CC2)cc1Nc1ccn2ncc(C#N)c2c1OC :: < 7.35 mL/min/kg
[2H]C([2H])([2H])NC(=O)c1cnc(NC(=O)C2CC2)cc1Nc1ccc2cnn(C([2H])([2H])C([2H])([2H])[2H])c2c1OC([2H])([2H])[2H] :: 18 mL/min/kg
[2H]C([2H])([2H])NC(=O)c1cnc(NC(=O)C2CC2)cc1Nc1ccc2cnn(CC)c2c1OC([2H])([2H])[2H] :: 18.9 mL/min/kg
[2H]C([2H])([2H])NC(=O)c1nnc2cc1Nc1cc(cc(-c3ncn(C)n3)c1OC)COCc1nc(ccc1F)N2 :: < 7.35 mL/min/kg

Kindly review the next compound as well.
Can you share its CLint scaled at 1 μM? I mean this compound: [2H]C([2H])([2H])NC(=O)c1cnc(Nc2ccc(F)cn2)cc1Nc1nn(C)c2ccn(CC)c(=O)c12 < 7.35 mL/min/kg

// provenance: patent US20250115597A1
